Target: T1, human MSLN on OVCAR3 tumor cells (human, UniProt Q13421 296-598)
T1 construct: whole, on cells; also called human MSLN protein
T1 sequence (Q13421 other isoform, or with tags, fused parts or gaps): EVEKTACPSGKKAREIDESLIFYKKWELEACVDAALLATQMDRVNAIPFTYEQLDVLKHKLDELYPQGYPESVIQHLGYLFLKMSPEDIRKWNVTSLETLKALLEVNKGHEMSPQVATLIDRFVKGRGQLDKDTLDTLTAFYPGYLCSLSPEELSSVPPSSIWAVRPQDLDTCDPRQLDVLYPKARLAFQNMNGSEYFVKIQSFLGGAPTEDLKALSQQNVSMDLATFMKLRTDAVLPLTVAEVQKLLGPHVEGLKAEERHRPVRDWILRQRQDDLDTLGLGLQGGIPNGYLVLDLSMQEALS
Assay: FACS, OVCAR3 cells
Parameter threshold = 2000 MFI. Response is yes (1) when Maximum_MFI meets or exceeds it, else no (0).

1. F7.44.20-H6 (scFv, not shown: small tags and cut ends, also called S009-F7.44.20 humanized antibody VH1a + VL2) scFv: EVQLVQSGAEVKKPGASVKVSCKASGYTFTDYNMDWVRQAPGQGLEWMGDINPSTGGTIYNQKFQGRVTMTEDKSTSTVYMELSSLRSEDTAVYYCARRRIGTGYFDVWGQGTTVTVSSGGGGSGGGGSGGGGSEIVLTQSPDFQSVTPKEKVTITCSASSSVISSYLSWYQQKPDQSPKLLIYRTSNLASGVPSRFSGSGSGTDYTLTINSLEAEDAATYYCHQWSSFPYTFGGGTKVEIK : no (0)
2. F7.44.20-H15 (scFv, not shown: small tags and cut ends, also called S009-F7.44.20 humanized antibody VH2a + VL3) scFv: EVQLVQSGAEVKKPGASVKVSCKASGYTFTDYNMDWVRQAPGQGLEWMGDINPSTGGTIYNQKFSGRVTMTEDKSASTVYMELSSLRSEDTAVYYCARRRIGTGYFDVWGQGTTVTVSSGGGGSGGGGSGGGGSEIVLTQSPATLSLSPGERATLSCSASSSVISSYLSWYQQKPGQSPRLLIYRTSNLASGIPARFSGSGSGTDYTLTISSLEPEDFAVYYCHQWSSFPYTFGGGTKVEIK : no (0)
3. F7.44.20-H9 (scFv, not shown: small tags and cut ends, also called S009-F7.44.20 humanized antibody VH2 + VL1) scFv: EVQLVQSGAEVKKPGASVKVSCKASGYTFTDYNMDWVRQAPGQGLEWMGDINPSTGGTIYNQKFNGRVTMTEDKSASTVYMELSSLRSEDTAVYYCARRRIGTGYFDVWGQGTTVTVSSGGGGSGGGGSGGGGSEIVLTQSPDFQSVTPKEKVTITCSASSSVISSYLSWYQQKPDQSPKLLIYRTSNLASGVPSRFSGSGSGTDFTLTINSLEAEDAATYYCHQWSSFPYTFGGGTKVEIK : yes (1)

Now take the following binder into account.
Prompt: Could you verify whether the entry F7.44.20-H3 (scFv, not shown: small tags and cut ends, also called S009-F7.44.20 humanized antibody VH1 + VL3) scFv: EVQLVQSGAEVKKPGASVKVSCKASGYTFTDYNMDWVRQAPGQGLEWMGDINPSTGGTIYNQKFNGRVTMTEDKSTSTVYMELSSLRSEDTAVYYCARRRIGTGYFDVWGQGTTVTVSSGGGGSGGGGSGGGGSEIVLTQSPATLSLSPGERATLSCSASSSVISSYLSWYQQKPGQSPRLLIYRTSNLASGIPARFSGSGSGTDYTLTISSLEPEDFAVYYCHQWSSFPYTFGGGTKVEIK shows Maximum_MFI of no less than 2000 MFI?
Completion: no (0)
